Ki listing for selected molecules.
Biological target: GST-Bc1-2 (Homo sapiens, UniProt P10415)
Sequence (P10415 whole entry): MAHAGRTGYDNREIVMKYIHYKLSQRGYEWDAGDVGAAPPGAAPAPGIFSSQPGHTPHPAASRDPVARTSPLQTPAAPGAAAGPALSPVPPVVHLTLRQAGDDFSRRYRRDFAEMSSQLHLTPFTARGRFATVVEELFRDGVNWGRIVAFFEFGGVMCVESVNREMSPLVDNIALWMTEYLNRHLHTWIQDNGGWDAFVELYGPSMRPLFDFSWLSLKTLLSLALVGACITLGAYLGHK
Test: Time Resolved-Fluorescence Resonance Energy Transfer (TR-FRET) Bcl-2 binding assay with F-Bak peptide probe
Details: GST-Bcl-2 1 nM, F-Bak probe 100 nM, Tb-anti-GST 1 nM; '<' = below limit of detection; read-out: TR-FRET Bcl-2 Binding Ki

Sample answers from the record:
>  <molecule>
CC1(C)CCC(CN2CCN(c3ccc(C(=O)NS(=O)(=O)c4ccc(OCC5(F)CCN(C(=O)OC(C)(C)C)CC5)c([N+](=O)[O-])c4)c(Oc4cnc5[nH]ccc5c4)c3)CC2)=C(c2ccc(Cl)cc2)C1 [Example 126]

>  <assayReadout>
Ki

>  <resultValue>
< 10 pM

$$$$
>  <molecule>
C#Cc1cc(S(=O)(=O)NC(=O)c2ccc(N3CCN(CC4=C(c5ccc(Cl)cc5)CC(C)(C)CC4)CC3)cc2Oc2cnc3[nH]ccc3c2)cnc1OCC1CCOCC1 [Example 69]

>  <assayReadout>
Ki

>  <resultValue>
1160 pM

$$$$
>  <molecule>
CC(C)c1cc(S(=O)(=O)NC(=O)c2ccc(N3CCN(CC4=C(c5ccc(Cl)cc5)CC(C)(C)CC4)CC3)cc2Oc2cnc3[nH]ccc3c2)cnc1OCC1CCOCC1 [Example 85]

>  <assayReadout>
Ki

>  <resultValue>
391 pM

$$$$
>  <molecule>
CC1(C)CC(c2ccc(Cl)cc2)=C(CN2CCN(c3ccc(C(=O)NS(=O)(=O)c4ccc(N[C@H]5CC[C@H](N6CCOCC6)CC5)c([N+](=O)[O-])c4)c(Oc4cnc5[nH]ccc5c4)c3)CC2)CO1 [Example 33]

>  <assayReadout>
Ki

>  <resultValue>
< 10 pM

$$$$

Turning now to a further molecule:
Qu. Would you kindly share the measured Ki for CC1(C)CCC(CN2CCN(c3ccc(C(=O)NS(=O)(=O)c4cnc(OCC5(F)CCOCC5)c(F)c4)c(Oc4cnc5[nH]ccc5c4)c3)CC2)=C(c2ccc(Cl)cc2)C1 [Example 248] ?
Ans. 29 pM
